test.system: 5-hydroxymethyl-dUMP N-hydrolase (Homo sapiens, UniProt O43598)
Sequence (O43598 whole entry, the tested form may be a part): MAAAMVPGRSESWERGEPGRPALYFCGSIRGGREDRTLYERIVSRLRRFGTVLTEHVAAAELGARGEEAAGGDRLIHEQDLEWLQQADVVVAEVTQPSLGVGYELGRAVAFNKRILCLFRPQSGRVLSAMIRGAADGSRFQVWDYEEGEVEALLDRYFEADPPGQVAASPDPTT
assay.notes: Binding affinity to wild-type truncated human DNPH1 extracted from Escherichia coli BL21DE3 assessed as dissociation constant by ITC analysis
pKd: −log10 of the molar value.
Catalogue of pKd values

smiles.string	pKd
O=P(O)(O)OC[C@H]1CNC[C@@H]1O	5.89
O=c1[nH]c(=O)n([C@@H]2O[C@H](COP(=O)(O)O)[C@@H](O)[C@@H]2F)cc1CO	6.37

----------
Catalogue of Ki values
test.system: 5-hydroxymethyl-dUMP N-hydrolase (Homo sapiens, UniProt O43598)
assay.notes: Competitive inhibition of wild-type truncated human DNPH1 extracted from Escherichia coli BL21DE3 using hmdUMP as substrate preincubated for 30 mins followed by substrate addition measured after 60 mins in presence of NADH
parameter.measured: Ki (µM)

smiles.string	limit.operator	data.value
O=P(O)(O)OC[C@H]1CNC[C@@H]1O	=	3.3
O=P(O)(O)OC[C@H]1CN(Cc2ccccc2)C[C@@H]1O	>	50
O=P(O)(O)OC[C@H]1CN(Cc2cccnc2)C[C@@H]1O	=	20.7
O=c1cc(CN2C[C@H](COP(=O)(O)O)[C@@H](O)C2)[nH]c(=O)[nH]1	=	5.17
O=P(O)(O)OC[C@H]1CN(Cc2ccc(F)nc2F)C[C@@H]1O	=	25.8
O=P(O)(O)OC[C@H]1CNC[C@@H]1OP(=O)(O)O	>	50
